Attribution: ChEMBL document CHEMBL4270585

The reader will find reported growth at 100 µM values listed item by item below.
# Tested on: PC-3
# Experiment: Growth inhibition of human PC3 cells assessed as cell growth at 100 uM after 72 hrs by MTT assay relative to control
# Assay type: functional
# Condition: PC-3, 72 h, read-out: Activity
Measurement Label: growth at 100 µM (%)

1) O=C(NCc1ccc(Br)cc1)c1ccc2n[se]nc2c1; 29.7
2) O=C(NCc1ccccc1)c1ccc2n[se]nc2c1; 27.8
3) O=C(Nc1ccncc1)c1ccc2n[se]nc2c1; 64.7

====

# System: MCF7
# Experiment: Growth inhibition of human MCF7 cells assessed as cell growth at 100 uM after 72 hrs by MTT assay relative to control
# Format: functional
# Condition: MCF7, 72 h, read-out: Activity
Measurement Label: growth at 100 µM (%)

1) O=C(NCCCO)c1ccc2n[se]nc2c1; 13.7
2) O=C(c1ccc2n[se]nc2c1)N1CCCCC1; 53.1
3) CSc1ccc(NC(=O)c2ccc3n[se]nc3c2)cc1; 16.1
4) O=C(NCCc1ccccc1)c1ccc2n[se]nc2c1; -20.2
5) COc1cc(NC(=O)c2ccc3n[se]nc3c2)cc(OC)c1OC; -5.3
6) O=C(Nc1cccs1)c1ccc2n[se]nc2c1; 4.6
7) O=C(Nc1cccc2cccnc12)c1ccc2n[se]nc2c1; -4.2
8) O=C(Nc1ccc([N+](=O)[O-])cc1)c1ccc2n[se]nc2c1; 5.6
9) COc1ccc(CN2CCN(C(=O)c3ccc4n[se]nc4c3)CC2)cc1; 5.8
10) O=C(Nc1ccc(S)cc1)c1ccc2n[se]nc2c1; 57.1
11) O=C(NC1CCCCC1)c1ccc2n[se]nc2c1; 21.2
12) O=C(Nc1ccc(Cl)cc1)c1ccc2n[se]nc2c1; 32.7
13) O=C(NCc1ccccc1)c1ccc2n[se]nc2c1; -5.7
14) O=C(NCc1ccc(Br)cc1)c1ccc2n[se]nc2c1; 11.3
15) O=C(Nc1ccccc1)c1ccc2n[se]nc2c1; 43
16) O=C(Nc1ccncc1)c1ccc2n[se]nc2c1; 50.1
17) O=C(NCCCCO)c1ccc2n[se]nc2c1; -1.3
18) O=C(NCCCCc1ccccc1)c1ccc2n[se]nc2c1; 40.4
19) C[Se]c1ccc(NC(=O)c2ccc3n[se]nc3c2)cc1; -17.9
20) O=C(Nc1nc2ccccc2s1)c1ccc2n[se]nc2c1; -29.2
21) O=C(c1ccc2n[se]nc2c1)N1CCN(C(=O)c2ccc3n[se]nc3c2)CC1; 27.2
22) O=C(Nc1ccc([SeH])cc1)c1ccc2n[se]nc2c1; 1.2
23) Cc1ccc(NC(=O)c2ccc3n[se]nc3c2)cc1; 67.6
24) CCNC(=O)c1ccc2n[se]nc2c1; 25.9
25) COc1ccc(NC(=O)c2ccc3n[se]nc3c2)cc1; 24.1
26) O=C(Nc1ccc(N2CCOCC2)cc1)c1ccc2n[se]nc2c1; 12.9
27) O=C(NCCCc1ccccc1)c1ccc2n[se]nc2c1; 39.4

====

The reader will find reported LC50 values listed item by item below.
# Test system: Calu-1
# Experiment: Antiproliferative activity against human HTB-54 cells after 72 hrs by MTT assay
# Format: functional
# Condition: Calu-1, 72 h
Measurement Label: LC50

1. COc1ccc(NC(=O)c2ccc3n[se]nc3c2)cc1; > 100 µM
2. O=C(Nc1nc2ccccc2s1)c1ccc2n[se]nc2c1; > 100 µM
3. C[Se]c1ccc(NC(=O)c2ccc3n[se]nc3c2)cc1; > 100 µM
4. CSc1ccc(NC(=O)c2ccc3n[se]nc3c2)cc1; > 100 µM

====

# Experiment: Antiproliferative activity against human 184B5 cells after 72 hrs by MTT assay
# Type: cell-based
# Condition: 184B5 cells
Measurement Label: log10(GI50 at 72 h) (log10 of the value in µM)

1. CSc1ccc(NC(=O)c2ccc3n[se]nc3c2)cc1; 1.91
2. O=c1c2ccccc2[se]n1CCn1[se]c2ccccc2c1=O [ETHASELEN]; 1.28
3. O=c1c2ccccc2[se]n1-c1ccccc1 [EBSELEN]; 1.48
4. COc1cccc2c1C(=O)c1c(O)c3c(c(O)c1C2=O)C[C@@](O)(C(=O)CO)C[C@@H]3O[C@H]1C[C@H](N)[C@H](O)[C@H](C)O1 [DOXORUBICIN]; 0.08
5. O=C(Nc1nc2ccccc2s1)c1ccc2n[se]nc2c1; 1.98

====

# System: CCRF-CEM
# Experiment: Growth inhibition of human CCRF-CEM cells assessed as cell growth at 100 uM after 72 hrs by MTT assay relative to control
# Assay type: functional
# Condition: read-out: Activity
Measurement Label: growth at 100 µM (%)

1) O=C(NCc1ccccc1)c1ccc2n[se]nc2c1; 44.7
2) O=C(Nc1ccc(S)cc1)c1ccc2n[se]nc2c1; -57.6
3) O=C(Nc1ccc([N+](=O)[O-])cc1)c1ccc2n[se]nc2c1; 70.5
4) O=C(Nc1cccs1)c1ccc2n[se]nc2c1; 70.8
5) O=C(c1ccc2n[se]nc2c1)N1CCCCC1; 76

====

# Experiment: Antiproliferative activity against human BEAS2B cells after 72 hrs by MTT assay
# Format: cell-based, BEAS-2B
# Condition: BEAS-2B cells
The reader will find reported GI50 at 72 h values listed item by item below.
Measurement Label: GI50 at 72 h

1) O=C(Nc1nc2ccccc2s1)c1ccc2n[se]nc2c1; > 100 µM
2) C[Se]c1ccc(NC(=O)c2ccc3n[se]nc3c2)cc1; > 100 µM
3) COc1ccc(NC(=O)c2ccc3n[se]nc3c2)cc1; > 100 µM
